tgt: TRPV1 channels (Homo sapiens)
Sequence (Q8NER1 whole entry): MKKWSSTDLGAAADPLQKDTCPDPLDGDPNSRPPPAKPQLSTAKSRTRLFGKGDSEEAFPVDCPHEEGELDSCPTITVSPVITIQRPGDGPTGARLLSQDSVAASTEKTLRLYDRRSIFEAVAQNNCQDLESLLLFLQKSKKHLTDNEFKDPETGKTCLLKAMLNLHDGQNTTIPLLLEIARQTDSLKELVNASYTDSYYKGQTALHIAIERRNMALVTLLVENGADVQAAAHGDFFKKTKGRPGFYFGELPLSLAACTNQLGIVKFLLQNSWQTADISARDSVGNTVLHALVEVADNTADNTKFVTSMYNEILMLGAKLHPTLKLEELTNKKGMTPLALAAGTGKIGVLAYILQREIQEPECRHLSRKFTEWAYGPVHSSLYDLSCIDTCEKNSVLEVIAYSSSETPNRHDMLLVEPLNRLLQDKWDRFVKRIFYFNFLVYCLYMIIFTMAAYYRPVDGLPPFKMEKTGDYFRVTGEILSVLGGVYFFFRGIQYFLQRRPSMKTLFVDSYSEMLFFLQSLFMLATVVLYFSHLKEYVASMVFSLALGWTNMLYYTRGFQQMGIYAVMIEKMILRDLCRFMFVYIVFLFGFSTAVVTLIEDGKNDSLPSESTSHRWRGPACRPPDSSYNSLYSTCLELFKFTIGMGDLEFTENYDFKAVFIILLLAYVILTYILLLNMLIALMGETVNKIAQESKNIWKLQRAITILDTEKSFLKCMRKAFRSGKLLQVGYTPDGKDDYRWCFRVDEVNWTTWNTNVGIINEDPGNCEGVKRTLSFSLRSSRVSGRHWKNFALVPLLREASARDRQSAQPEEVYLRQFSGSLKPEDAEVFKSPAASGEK
assay_method_text: Blocking of TRPV1 channel activation by capsaicin
Type: cell-based
condition_description: capsaicin 100 nM; FIG. 1A; read-out: IC50 against capsaicin
metric: pIC50
By convention, pIC50 is the negative base-10 log of a molar concentration.

# get_value(readout='pIC50', item= CCCCC/C=C\C/C=C\C/C=C\C/C=C\CCCC(=O)NCCc1c[nH]c2ccc(O)cc12 [AA-5-HT, N-arachidonoyl-serotonin] )
6.89
